From: PubChem BioAssay AID1996

Parameter log10(solubility kinetic): see the listing below.
# experimentalConditions: buffer; pH 7.4; 200.0 µM
Scale: log10; quantity: solubility kinetic; unit before log: µg/mL

Completed entries (count: 2):
{"compound": "Nc1[nH]c2cc([N+](=O)[O-])ccc2c1-c1ccccn1", "measuredResult": 0.15}
{"compound": "O=C(Cn1c(=O)oc2ccccc21)Nc1ccc(Cl)cc1", "measuredResult": 0.26}

Inquiry: Return value of log10(solubility kinetic) for input Cc1cc(=O)oc2cc(NC(=O)CC3(CC(=O)O)CCCC3)ccc12 , no commentary.
Reply text: 1.70

Inquiry: Return value of log10(solubility kinetic) for input COc1ccc(NC(=O)COC(=O)c2cccn2C)cc1S(=O)(=O)N1CCCCC1 , no commentary.
Reply text: 1.51

Inquiry: Return value of log10(solubility kinetic) for input COc1cccc(OC)c1C(=O)NC(=O)Nc1c(F)cc(F)cc1F , no commentary.
Reply text: 0.73

Inquiry: Return value of log10(solubility kinetic) for input COCCn1c(=S)[nH]c2sc3c(c2c1=O)CCC(C)C3 (centres undefined) , no commentary.
Reply text: 1.61

Inquiry: Return value of log10(solubility kinetic) for input CN(C)CC(c1ccccc1)c1ccccc1.Cl , no commentary.
Reply text: 1.54

Inquiry: Return value of log10(solubility kinetic) for input Cc1ccc(CNC(=O)C2CCC(=O)N2Cc2ccc(F)cc2)cc1 (centres undefined) , no commentary.
Reply text: 1.70

Inquiry: Return value of log10(solubility kinetic) for input CC(Cc1ccccc1)C(=O)Nc1ccc(Br)cc1 (centres undefined) , no commentary.
Reply text: 0.51

Inquiry: Return value of log10(solubility kinetic) for input Cc1nc(C(F)(F)F)ccc1C(=O)N1CCCCC1 , no commentary.
Reply text: 1.56

Inquiry: Return value of log10(solubility kinetic) for input CCN(CC)c1nc2ccccc2n(Cc2cccc(OC)c2)c1=O , no commentary.
Reply text: -0.52

* * *

# experimentalConditions: buffer; pH 7.4; 200.0 µM
Where solubility kinetic equals or exceeds 20 µg/mL, the correct label is Satisfied; where it does not, the label is Not satisfied.

Solved cases (6 shown):
{"compound": "COc1ccc(/C=C/C(=O)N2CCN(C)CC2)cc1OC", "assignedClass": "Satisfied"}
{"compound": "CCn1c(/C=C/c2ccccc2F)nc2ccccc2c1=O", "assignedClass": "Not satisfied"}
{"compound": "CCOC(=O)c1ncccc1NC(=O)CC(=O)Nc1cccnc1C(=O)OCC", "assignedClass": "Satisfied"}
{"compound": "O=C(NCc1ccc2c(c1)OCO2)c1cc(=O)[nH]c2ccccc12", "assignedClass": "Not satisfied"}
{"compound": "CCCOc1c(Cl)cc(C(=O)NC)cc1OC", "assignedClass": "Satisfied"}
{"compound": "CC(C)c1ccc(/C=C/C(=O)NCc2ccc(S(N)(=O)=O)cc2)cc1", "assignedClass": "Not satisfied"}

Inquiry: Determine whether measured solubility kinetic meets or exceeds 20 µg/mL for CCOc1cc(N2CCOCC2)c(OCC)cc1NC(=O)c1cc(S(=O)(=O)N2CCOCC2)ccc1F
Reply text: Not satisfied

Inquiry: Determine whether measured solubility kinetic meets or exceeds 20 µg/mL for Cc1ccc(S(=O)(=O)NCC(=O)Nc2cccnc2)cc1C
Reply text: Satisfied

Inquiry: Determine whether measured solubility kinetic meets or exceeds 20 µg/mL for Cl.O=C(NCCN1CCOCC1)c1ccc(S(=O)(=O)Nc2ccccc2)cc1
Reply text: Satisfied

Inquiry: Determine whether measured solubility kinetic meets or exceeds 20 µg/mL for CC(NC(=O)COC(=O)C1CC1C)c1cccc(Cl)c1 (centres undefined)
Reply text: Satisfied

Inquiry: Determine whether measured solubility kinetic meets or exceeds 20 µg/mL for Cn1nccc1C(=O)NC1CCN(Cc2ccccc2)CC1
Reply text: Satisfied

Inquiry: Determine whether measured solubility kinetic meets or exceeds 20 µg/mL for CCC1(C)CC(=O)N(c2ccc(F)c(Cl)c2)C(=O)C1
Reply text: Not satisfied

Inquiry: Determine whether measured solubility kinetic meets or exceeds 20 µg/mL for O=C(Nc1ccc(F)cc1)C1C2CCC3C(CCC21)C3(Cl)Cl (centres undefined)
Reply text: Not satisfied

Inquiry: Determine whether measured solubility kinetic meets or exceeds 20 µg/mL for Cc1ccc(NC(=S)NCc2ccc(Cl)cc2)c(C)c1
Reply text: Not satisfied

Inquiry: Determine whether measured solubility kinetic meets or exceeds 20 µg/mL for Cc1ccc(S(=O)(=O)N2CCCCC2)cc1C(=O)N1C(C)CCCC1C (centres undefined)
Reply text: Satisfied
